Biological target: T1, human GIP receptor (human, UniProt P48546 22-466)
T1 sequence (looked up): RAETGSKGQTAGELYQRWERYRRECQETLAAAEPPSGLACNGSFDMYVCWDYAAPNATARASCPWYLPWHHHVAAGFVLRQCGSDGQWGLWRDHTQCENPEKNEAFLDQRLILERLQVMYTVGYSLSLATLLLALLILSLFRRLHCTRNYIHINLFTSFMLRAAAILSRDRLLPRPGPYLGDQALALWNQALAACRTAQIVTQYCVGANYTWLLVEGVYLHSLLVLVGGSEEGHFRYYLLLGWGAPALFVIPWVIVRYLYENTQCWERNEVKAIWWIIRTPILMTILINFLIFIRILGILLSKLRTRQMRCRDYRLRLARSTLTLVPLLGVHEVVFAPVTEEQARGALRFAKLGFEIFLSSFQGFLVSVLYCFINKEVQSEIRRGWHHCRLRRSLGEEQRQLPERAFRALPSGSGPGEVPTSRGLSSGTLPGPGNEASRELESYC
Assay: cell-based or functional assay
Starred links: 1 amine or outer side, 2 acyl side, 3 side chain; linkers in the order of their positions; H or OH if unused. Non-standard residues stand in square brackets, D forms with d. Groups on a side chain read outwards from the residue. No end group written: not given here. *: point of attachment. C18 diacid = O=C(O)CCCCCCCCCCCCCCCCC(=O)*; εLys = N[C@@H](CCCCN[*:1])C(=O)[*:2]; Aib = CC(C)(N)C(=O)O
measurementType: EC50 CreLuc hGIPR 100% hP (nM)
Supply the numeric figure in nM, leaving out any unit text.

Example binders with recorded EC50 CreLuc hGIPR 100% hP:
Y[Aib]EGTFTSDYSI[Aib]LEEQAQ[Aib]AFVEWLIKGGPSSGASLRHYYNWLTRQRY-NH2 (not fully specified (residue 28)) [Compound 100] ... 0.87
YXEGTFTSDYSIXLEAQAQXAFVEWLIKGGPSSGASLRHYYNWLTRQRY (Aib at 2, 13, 20; K28 side chain: C20DA-gGlu-gGlu-gGlu-gGlu-gGlu-gGlu-eLys; C-terminal NH2) [Compound 102] ... 4.01
YXEGTFTSDYSIXLEDQAQXAFVEWLIKGGPSSGASLRHYYNWLTRQRY (Aib at 2, 13, 20; K28 side chain: C20DA-gGlu-gGlu-gGlu-gGlu-gGlu-gGlu-eLys; C-terminal NH2) [Compound 90] ... 6.75

Fill in EC50 CreLuc hGIPR 100% hP for record YXEGTFTSDYSIXLEKQAQXAFVEWLIKGGPSSGASLRXYYNWLTRQRY (Aib at 2, 13, 20; Tle at 39; K28 side chain: C20DA-gGlu-gGlu-gGlu-gGlu-gGlu-gGlu-eLys; C-terminal NH2) [Compound 119]
4.31

Fill in EC50 CreLuc hGIPR 100% hP for record Y[Aib]EGTFTSDYSI[Aib]LEKQAQ[Aib]AFVQWLIK([εLys-Glu-Glu-Glu-Glu-Glu-C18 diacid])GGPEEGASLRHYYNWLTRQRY-NH2 [Compound 155]
1.43
